Tested on: NLuc-UAA PTC
Assay: NanoLuc nonsense reporter screen (all-in-one HTC plasmid), TAA/UAA PTC, HEK293 cells
Type: cell-based, human
Settings: Table 3, Gln TAA

molecule | Ranking
GlnTAAchr17.trna14: ACE-tRNA Gln, TAA suppressor, SEQ ID NO: 28 (nucleic acid, expressed or natural sequence) CGTCGGTCCCATGGTGTAATGGTTAGCACTCTGGACTTTAAATCCAGCGATCCGAGTTCAAATCTCGGTGGGACCT | #5
GlnTAAchr6.trna175: ACE-tRNA Gln, TAA suppressor, SEQ ID NO: 25 (nucleic acid, expressed or natural sequence) CGTCGGCCCCATGGTGTAATGGTTAGCACTCTGGACTTTAAATCCAGCGATCCGAGTTCAAATCTCGGTGGGACCT | #2
GlnTAAchr1.trna101: ACE-tRNA Gln, TAA suppressor, SEQ ID NO: 24 (nucleic acid, expressed or natural sequence) CGTCGGTTCCATGGTGTAATGGTAAGCACTCTGGACTTTAAATCCAGCGATCCGAGTTCGAGTCTCGGTGGAACCT | #1
GlnTAAchr6.trna1: ACE-tRNA Gln, TAA suppressor, SEQ ID NO: 27 (nucleic acid, expressed or natural sequence) CGTCGGTTCCATGGTGTAATGGTTAGCACTCTGGACTTTAAATCCAGCGATCCGAGTTCAAATCTCGGTGGAACCT | #4
